biological target: human FXR (NR1H4) (Homo sapiens (Human)); assay: Human FXR (NR1H4) Assay (Gal4 promoter driven luciferase reporter, Indigo Bioscience kit IB00601); assay type: cell-based; details: efficacy normalized to CDCA set as 100%
Sequence (Q96RI1 whole entry, the tested form may be a part): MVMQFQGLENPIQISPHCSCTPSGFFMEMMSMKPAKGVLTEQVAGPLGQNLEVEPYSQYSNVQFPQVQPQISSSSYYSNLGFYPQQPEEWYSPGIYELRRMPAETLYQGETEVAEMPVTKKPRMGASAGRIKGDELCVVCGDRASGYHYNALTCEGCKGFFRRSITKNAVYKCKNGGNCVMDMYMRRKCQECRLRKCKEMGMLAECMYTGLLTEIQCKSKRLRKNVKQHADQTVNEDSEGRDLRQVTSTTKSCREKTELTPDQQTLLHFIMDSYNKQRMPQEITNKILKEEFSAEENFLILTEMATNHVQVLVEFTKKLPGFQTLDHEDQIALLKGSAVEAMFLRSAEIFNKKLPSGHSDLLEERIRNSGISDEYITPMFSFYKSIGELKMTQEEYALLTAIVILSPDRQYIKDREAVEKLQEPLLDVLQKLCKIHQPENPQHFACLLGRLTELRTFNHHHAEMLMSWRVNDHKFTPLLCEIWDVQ
Efficacy (%) reference
Please give the number followed by its unit.

Here's what some known entries look like.
1) CC[C@H]1[C@@H](O)[C@@H]2[C@H](CC[C@]3(C)[C@@H]([C@H](C)CCNC(=O)NS(=O)(=O)C4CCCC4)CC[C@@H]23)[C@@]2(C)CC[C@@H](O)C[C@@H]12    275%
2) CC[C@H]1[C@@H](O)[C@@H]2[C@H](CC[C@]3(C)[C@@H]([C@H](C)CCNC(=O)NS(=O)(=O)C4CC5CCC4C5)CC[C@@H]23)[C@@]2(C)CC[C@@H](O)C[C@@H]12 (stereo partly drawn)    290%
3) CC[C@H]1[C@@H](O)[C@@H]2[C@H](CC[C@]3(C)C([C@H](C)CCNS(=O)(=O)c4ccccc4)CC[C@@H]23)[C@@]2(C)CC[C@@H](O)C[C@@H]12 (stereo partly drawn)    146%
4) CC[C@H]1[C@@H](O)[C@@H]2[C@H](CC[C@]3(C)[C@@H]([C@H](C)CCN(C)C(=O)NS(=O)(=O)c4ccc(C(C)(C)C)cc4)CC[C@@H]23)[C@@]2(C)CC[C@@H](O)C[C@@H]12    378%
5) CC[C@H]1[C@@H](O)[C@@H]2[C@H](CC[C@]3(C)[C@@H]([C@H](C)CCNC(=O)NS(=O)(=O)N4CCS(=O)(=O)CC4)CC[C@@H]23)[C@@]2(C)CC[C@@H](O)C[C@@H]12    348%

Read off the recorded Efficacy (%) for CC[C@H]1[C@@H](O)[C@@H]2[C@H](CC[C@]3(C)[C@@H]([C@H](C)CCNC(=O)NS(=O)(=O)C4CCC(F)(F)CC4)CC[C@@H]23)[C@@]2(C)CC[C@@H](O)C[C@@H]12
351%
